test system: LPETG (Abz-LPETGK(Dnp)-CONH2); assay: In vitro sortase kinetics HPLC assay, LPETG substrate; format: biochemical; settings: substrate wt (LPETG); read-out: Km, LxExG
reported.property: Km (mM)
Response body: numeric value in mM, unit text excluded.

query: Return reported Km; argument: SrtA: wild-type Staphylococcus aureus sortase A (SEQ ID NO: 1) (protein, S. aureus) MKKWTNRLMTIAGVVLILVAAYLFAKPHIDNYLHDKDKDEKIEQYDKNVKEQASKDKKQQAKPQIPKDKSKVAGYIEIPDADIKEPVYPGPATPEQLNRGVSFAEENESLDDQNISIAGHTFIDRPNYQFTNLKAAKKGSMVYFKVGNETRKYKMTSIRDVKPTDVEVLDEQKGKDKQLTLITCDDYNEKTGVWEKRKIFVATEVK
result: 5.18
